- Tested on: BT-549 breast
- experiment.summary: NCI-60 one-dose screen, 48 h
- measurement.setup: 10 µM unless noted
- Procedure: Growth inhibition of the BT-549 human tumor cell line is measured as a screen for anti-cancer activity. Cells are grown in 96 well plates and exposed to the test compound for 48 hours. Compounds are tested at a single concentration, which is 10^-5 M for most compounds. The reported endpoint is percent growth (GI% or GIPRCNT), where numbers from 0 - 100% represent growth inhibition, and numbers from -100% - 0 represent cell death. For example, a value of 40 represents 60% growth inhibition. […]
Compounds without any hit were thinned out: in the full panel of roughly 83,000, 20% have a hit. Activity calls are given as the source filed them. The calls were made as follows: active = growth percent below 10; inactive = the rest.
Classes used: active, inactive

INSERT INTO measurements (chem_smiles, target_system, qualitative_label) VALUES
  ('O=C1COCCN1c1ccc(NCc2cn(C(=O)c3ccc(Cl)cc3)c3ccccc23)cc1', 'BT-549 breast', 'inactive'),
  ('Cc1onc2c(-c3ccccc3)n[nH]c(=O)c12', 'BT-549 breast', 'inactive'),
  ('c1ccc(OCc2nnc(-c3ccc(Oc4ccccc4)cc3)o2)cc1', 'BT-549 breast', 'inactive'),
  ('COC(=O)CCC/C=C\C[C@H]1C=CC(=O)/C1=C/C[C@@H](O)CCc1cccc(C(F)(F)F)c1', 'BT-549 breast', 'active'),
  ('CCCCOc1nc2ccc(OC)cc2cc1-c1cc(-c2ccc(Cl)cc2)nc(-c2ccc(Cl)cc2)c1', 'BT-549 breast', 'inactive'),
  ('Cc1cc2[nH]c(=O)c3c4ncccc4cn3c2cc1C', 'BT-549 breast', 'inactive'),
  ('COc1ccc(C(=S)N2CCN(c3cccc(C)c3)CC2)cc1OC', 'BT-549 breast', 'inactive'),
  ('CSc1nc2ccc(C)cc2cc1/C=N/O', 'BT-549 breast', 'inactive'),
  ('Cc1oc2nc[nH]c(=O)c2c1C(=O)/C=C/c1ccc(Br)cc1', 'BT-549 breast', 'active'),
  ('C#Cc1cccc(NC(=O)c2ccc(NC(=O)C=C)cc2)c1', 'BT-549 breast', 'inactive'),
  ('CCN(CC)CCNc1nc2ccccc2c2c(=O)c3cc(Cl)ccc3sc12', 'BT-549 breast', 'inactive'),
  ('O=C(N=c1oc2ccccc2cc1-c1cc2ccccc2[nH]1)Nc1ccc(Cl)cc1', 'BT-549 breast', 'inactive');

---

- System: HCT-15 colon
- experiment.summary: NCI-60 one-dose screen, 48 h (100 = growth as untreated, 0 = no growth, -100 = all killed)
- measurement.setup: 10 µM unless noted
This is part of a sample that, as a whole, favours compounds with a hit. Of some 83,000 tested, about 20% had one in any assay.
property.label: growth (%)

INSERT INTO assay_data (compound, readout_units, reported_result) VALUES
  ('CCCCOc1ccc(/C=N/NC(N)=S)cc1', '%', 55.7),
  ('CC([C@H]1CCC2C3CCC4C[C@@H](NC=O)CC[C@]4(C)C3CC[C@@]21C)N(C)C (stereo not given in full)', '%', -59.7),
  ('NS(=O)(=O)c1ccc(-n2nc(C(=O)N/N=C\c3ccc(F)cc3)cc2-c2ccc(Br)cc2)cc1', '%', 54.3),
  ('COc1cc2cc(Oc3ccc(NC(=O)Nc4ccc(Cl)c(C(F)(F)F)c4)cc3)c(C)nc2cc1OCCN1CCOCC1', '%', 13.7),
  ('COc1ccc2sc3c(NCCCNCCO)nc4ccccc4c3c(=O)c2c1', '%', 44),
  ('Cc1ccc(S(=O)(=O)N/N=C/C2(c3ccccc3)CC2)cc1', '%', 115),
  ('COc1ccc(/C=C/c2c(C(=O)/C=C/c3ccc(Cl)cc3)c(C)nc3ccccc23)cc1', '%', -0.536),
  ('CCOc1c(B(O)O)cccc1-c1nc2ccc3[nH]ncc3c2c2c1CCCC2', '%', 48.4),
  ('COc1ccc(-c2nn(C(=O)c3cc(OC)c(OC)c(OC)c3)c3cc(N)ccc23)cc1', '%', 4.67),
  ('NCCCNc1nc2ccccc2c2c(=O)c3cc(F)cc(Cl)c3sc12', '%', 64.1),
  ('CCOC(=O)C1=C(N)Oc2c(sc3c(C)cccc23)C1c1ccc(F)cc1 (stereo not given)', '%', 6.3),
  ('CCOC(=O)/C(C#N)=C\Nc1ccc2ncnc(Nc3ccc(Cl)cc3Cl)c2c1', '%', 92.7),
  ('N/C(=N\c1nc2ccccc2s1)NC(=O)Nc1cccc2ccccc12', '%', 18.9),
  ('NC1CCN(c2nc(Nc3cccc(C(F)(F)F)c3)c3c(=O)[nH]ccc3n2)CC1', '%', -80),
  ('O=C(O)c1cn(C2CC2)c2cc(N3CCN(C(=O)Nc4nc(-c5ccccc5)cs4)CC3)c(F)cc2c1=O', '%', 29.9);

---

- Test system: COLO 205 colon
- experiment.summary: NCI-60 one-dose screen, 48 h
- measurement.setup: 10 µM unless noted
Compounds without any hit were thinned out: in the full panel of roughly 83,000, 20% have a hit. The source made the active and inactive calls. The calls were made as follows: active = growth percent below 10; inactive = the rest.
Classes used: active, inactive

INSERT INTO assay_data (compound, qualitative_label) VALUES
  ('COc1cc(C(=O)/C=C/c2ccc(OCCCCCC[P+](c3ccccc3)(c3ccccc3)c3ccccc3)cc2)cc(OC)c1OC', 'active'),
  ('COc1ccc(C(=O)COC(=O)[C@H](C[Se][Se]C[C@H](NC(=O)c2ccc(Br)cc2F)C(=O)OCC(=O)c2ccc(OC)cc2)NC(=O)c2ccc(Br)cc2F)cc1', 'active'),
  ('CN(C)CCNc1nc2ccccc2c2c(=O)c3cc(F)ccc3sc12', 'active'),
  ('CSc1ccc2c(c1)c(CCN)c(C)n2Cc1ccc(Cl)c(Cl)c1', 'active'),
  ('Cc1ccc(-c2nc(N3CCN(CC(=O)Nc4ccc(Cl)c(C(F)(F)F)c4)CC3)c3ccccc3n2)cc1', 'inactive'),
  ('O=C(/C=C/c1ccc([N+](=O)[O-])o1)NNC(=O)c1cc2ccccc2cc1O', 'active'),
  ('COc1ccc(C2NC(=O)C(C#N)c3c2sc2c(F)cccc32)c(OC)c1 (stereo unspecified)', 'inactive'),
  ('Cc1c(C(=O)N[C@@H](Cc2ccccc2)C(=O)C(=O)NCc2ccc(F)cc2)[nH]c2ccccc2c1=O', 'active'),
  ('COc1ccc2c(c1OC)C(=O)O[C@H]2[C@H]1c2c(cc3c(c2OC)OCO3)CCN1C', 'inactive'),
  ('Cc1ccc(-c2nn(C)c(=O)c3noc(-c4ccc(C)cc4)c23)cc1', 'inactive'),
  ('O=C1CCC(C(=O)NCCNCCNC(=O)C2CCC(=O)N2)N1 (stereo unspecified)', 'inactive');

---

- System: SF-295 CNS
- experiment.summary: NCI-60 one-dose screen, 48 h (100 = growth as untreated, 0 = no growth, -100 = all killed)
- measurement.setup: 10 µM unless noted
Compounds without any hit were thinned out: in the full panel of roughly 83,000, 20% have a hit.
property.label: growth (%)

INSERT INTO assay_data (compound, readout_units, reported_result) VALUES
  ('CCN(CC)CCNC(=O)c1cn2ncnc(Oc3ccc(NC(=O)Nc4ccc(Cl)c(C(F)(F)F)c4)cc3)c2c1C', '%', -87.4),
  ('COc1cc(/C=N/NC(=O)c2ccc(C)nc2)cc(OC)c1OC', '%', 97.4),
  ('COc1ccc(-n2c(N)c(-c3nc4ccccc4[nH]3)cc(C#N)c2=O)cc1', '%', 94.1),
  ('CCCCCCCCCCCCCCCCCCOc1ccc(CC(=O)OCC[N+](C)(C)C)cc1', '%', 97.6),
  ('O=C(Nc1ccc(Br)cc1F)c1cc(Br)ccc1O', '%', -59.7),
  ('O=c1[nH][n+](-c2ccc(Br)cc2)no1', '%', 21.3),
  ('CCc1cccc2c1S/C(=C/c1ccc(Cl)cc1)C2=O', '%', 96.7),
  ('CC(C)n1cnc2c(Nc3cccc(Cl)c3)nc(N[C@H]3CCCC[C@@H]3N)nc21', '%', 76.3),
  ('O=C(N/N=C/[C@H](O)[C@@H](O)[C@@H](O)[C@H](O)CO)c1ccc(NC(=O)c2cccnc2)cc1', '%', 102),
  ('O=C(CCOCCNC(=O)COc1ccc2c(c1)OCC(c1ccc(F)cc1)C2=O)NCCCC(O)(P(=O)(O)O)P(=O)(O)O (centres undefined)', '%', 102),
  ('Cc1ccc(C(=O)N/N=C/c2cccc(Oc3ccccc3)c2)cn1', '%', 41.6),
  ('CS(=O)(=O)Nc1cc(-c2ccc3ncnc(Nc4cccc(Cl)c4F)c3c2)cnc1Cl', '%', 34.7),
  ('CCCCNC(=O)Oc1ccc(/C(=C(\C)c2ccc(Cl)cc2)c2ccc(OCCN(CC)CC)cc2)cc1', '%', 85.2),
  ('COc1ccc(/C=N/Nc2cc(=O)[nH]c3ccc(Cl)cc23)cc1', '%', 72.6);
